Target: Retinoic acid receptor alpha (Homo sapiens)
Experiment: ATG_RARa_TRANS: Attagene TRANS-FACTORIAL HepG2 Assay for human Retinoic Acid Receptor alpha (RARa) (AID 2283005)
Results filed as inconclusive are left out. Calls of active or inactive are those of the source. How the source made its calls: active means hit-call score of the fitted dose curve at least 0.9, where 1 is the maximum; inconclusive means response in the unintended direction; inactive means score below 0.9.
Outcome (select one): 1.0 = active, 0.0 = inactive

Worked examples, 5 compounds total:
> print(dat)
                                   compound  class.assignment
1  C[C@]12CC[C@H]3C(=CCc4cc(O)ccc43)[C@@H]1CCC2=O               0.0
2                                Nc1cccnc1N               1.0
3  O=C1C=CC(=O)N1c1ccc(Cc2ccc(N3C(=O)C=CC3=O)cc2)cc1               0.0
4                                 Cc1cnccn1               0.0
5        CC(O)C#CC(C)O (stereo unspecified)               0.0

Task item: Recorded test outcome, item `O=C(F)C1(F)C(F)(F)C(F)(F)C(F)(F)C(F)(F)C1(F)F`
Reply: 0.0

Task item: Lookup `O=S(=O)(Cl)C(F)(F)C(F)(F)C(F)(F)C(F)(F)C(F)(F)C(F)(F)C(F)(F)C(F)(F)F`
Reply: 0.0

Task item: Lookup `c1ccc(C[P+](c2ccccc2)(c2ccccc2)c2ccccc2)cc1`
Reply: 0.0

Task item: Lookup `CC(C)(C)C(=O)C1C(=O)c2ccccc2C1=O`
Reply: 0.0

Task item: Lookup CCC(=O)OC(C)c1ccccc1 (stereo unspecified)
Reply: 0.0

Task item: Lookup `O=C1C=CC(=O)N1c1ccccc1`
Reply: 0.0

----------
Read-out: Tissue Factor, F3 (gene 2152)
Assay: BSK_LPS_TissueFactor: BioMAP Diversity Plus: LPS Assay for Tissue Factor Biomarker Activity (AID 2283084)
Settings: primary human HUVEC with PBMC; actives raise or lower the signal
Calls of active or inactive are those of the source. Rule for the calls: active = hit-call score of the fitted dose curve at least 0.9, where 1 is the maximum; inactive = score below 0.9.
Result Type: outcome

> print(dat)
                                   compound  result.type    result
1  NS(=O)(=O)C(F)(F)C(F)(F)C(F)(F)C(F)(F)C(F)(F)C(F)(F)F      outcome  inactive
2                   NC(O)(C(F)(F)F)C(F)(F)F      outcome  inactive
3  COC(F)(C(F)F)C(F)(F)F (stereo not drawn)      outcome  inactive

----------
Biological target: Hepatocyte nuclear factor 3-beta (Homo sapiens) (UniProt Q9Y261)
Sequence (Q9Y261 whole entry, looked up): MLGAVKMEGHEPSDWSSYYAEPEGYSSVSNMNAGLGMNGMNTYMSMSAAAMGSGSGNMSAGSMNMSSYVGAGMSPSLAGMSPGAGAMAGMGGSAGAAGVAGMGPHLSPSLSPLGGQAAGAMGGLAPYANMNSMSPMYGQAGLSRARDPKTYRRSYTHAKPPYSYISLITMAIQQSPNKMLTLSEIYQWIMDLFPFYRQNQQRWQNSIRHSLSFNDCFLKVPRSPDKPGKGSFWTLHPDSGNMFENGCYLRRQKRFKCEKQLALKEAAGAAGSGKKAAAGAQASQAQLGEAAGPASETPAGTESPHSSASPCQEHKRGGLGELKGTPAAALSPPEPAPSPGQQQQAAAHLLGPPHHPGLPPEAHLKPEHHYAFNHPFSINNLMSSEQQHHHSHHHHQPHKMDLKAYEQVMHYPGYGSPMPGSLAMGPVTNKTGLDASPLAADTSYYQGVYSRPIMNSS
Assay: ATG_FoxA2_CIS: Attagene CIS-FACTORIAL HepG2 Assay for human Forkhead box A2 (FOXA2) (AID 2282942)
Conditions: HepG2 cis-reporter transcription factor activity, 24 h; actives raise or lower the signal
Active and inactive are the calls of the source. Rule for the calls: active = hit-call score of the fitted dose curve at least 0.9, where 1 is the maximum; inactive = score below 0.9.
Outcome (select one): active, inactive

Worked examples, 5 compounds total:
> print(dat)
                                   compound  class.assignment
1  OCC(O)CC(F)(F)C(F)(F)C(F)(F)C(F)(F)F (stereo not given)          inactive
2  CCN(CC)c1ccc2c(c1)Oc1cc(N(CC)CC)ccc1C21OC(=O)c2ccccc21          inactive
3  CCCCCCCC/C=C\CCCCCCCC(=O)OCC(O)CO (stereo not given)          inactive
4                                    OCCCCl          inactive
5                              Cc1ccc(O)cn1          inactive

Task item: Recorded test outcome, item `CCN(CC)c1ccc(N=Nc2ccccc2)cc1`
Reply: active

Task item: Lookup OCCC(O)CO (stereo not given)
Reply: inactive

Task item: Lookup `CSc1ccc(Cl)cc1`
Reply: inactive

Task item: Lookup `OCCCc1cccnc1`
Reply: inactive

Task item: Lookup `Nc1c(Br)cc([N+](=O)[O-])cc1Br`
Reply: inactive

Task item: Lookup CCC(C)CO (stereo not given)
Reply: inactive

Task item: Lookup CCc1cccc(C)c1N(C(=O)C(=O)O)C(C)COC (stereo not given)
Reply: inactive

Task item: Lookup `CCN=c1cc2oc3cc(NCC)c(C)cc3c(-c3ccccc3C(=O)OCC)c-2cc1C`
Reply: inactive

Task item: Lookup `CC(C)(C)c1cc(Cc2cc(C(C)(C)C)c(O)c(C(C)(C)C)c2)cc(C(C)(C)C)c1O`
Reply: inactive

Task item: Lookup `NC(=O)C(F)(F)C(F)(F)C(F)(F)C(F)(F)C(F)(F)C(F)(F)C(F)(F)F`
Reply: inactive

Task item: Lookup `CCCCCCCCn1sc(Cl)c(Cl)c1=O`
Reply: active

Task item: Lookup `CCCCCCCCCCCCC[N+](C)(C)Cc1ccccc1`
Reply: inactive

Task item: Lookup `CC(=O)CCC(C)C`
Reply: inactive

Task item: Lookup `CN(C(=O)C(F)(F)C(F)(F)C(F)(F)F)[Si](C)(C)C`
Reply: inactive

Task item: Lookup `CN1CN(C)CN(C)C1`
Reply: inactive

----------
Experiment: CEETOX_H295R_PROG: CeeTox H295R High-throughput Steroidogenesis Assay for Progesterone (PROG) (AID 2283442)
Settings: actives raise or lower the signal
Calls of active or inactive are those of the source. The calls were made as follows: active = hit-call score of the fitted dose curve at least 0.9, where 1 is the maximum; inactive = score below 0.9.
Outcome (select one): active, inactive

Worked examples, 3 compounds total:
> print(dat)
                           structure.smiles  class.assignment
1  C[C@]12CC[C@H]3C(=CCc4cc(O)ccc43)[C@@H]1CCC2=O            active
2                   CCCCCCCCCc1ccc(OCCO)cc1          inactive
3                     CCn1c2ccccc2c2ccccc21          inactive

We next turn to a different compound, shown below.
Task item: Recorded test outcome, item `CCOCOCC`
Reply: inactive

----------
Biological target: Transcription factor Sp1 (Homo sapiens) (UniProt P08047)
Sequence (P08047 whole entry, looked up): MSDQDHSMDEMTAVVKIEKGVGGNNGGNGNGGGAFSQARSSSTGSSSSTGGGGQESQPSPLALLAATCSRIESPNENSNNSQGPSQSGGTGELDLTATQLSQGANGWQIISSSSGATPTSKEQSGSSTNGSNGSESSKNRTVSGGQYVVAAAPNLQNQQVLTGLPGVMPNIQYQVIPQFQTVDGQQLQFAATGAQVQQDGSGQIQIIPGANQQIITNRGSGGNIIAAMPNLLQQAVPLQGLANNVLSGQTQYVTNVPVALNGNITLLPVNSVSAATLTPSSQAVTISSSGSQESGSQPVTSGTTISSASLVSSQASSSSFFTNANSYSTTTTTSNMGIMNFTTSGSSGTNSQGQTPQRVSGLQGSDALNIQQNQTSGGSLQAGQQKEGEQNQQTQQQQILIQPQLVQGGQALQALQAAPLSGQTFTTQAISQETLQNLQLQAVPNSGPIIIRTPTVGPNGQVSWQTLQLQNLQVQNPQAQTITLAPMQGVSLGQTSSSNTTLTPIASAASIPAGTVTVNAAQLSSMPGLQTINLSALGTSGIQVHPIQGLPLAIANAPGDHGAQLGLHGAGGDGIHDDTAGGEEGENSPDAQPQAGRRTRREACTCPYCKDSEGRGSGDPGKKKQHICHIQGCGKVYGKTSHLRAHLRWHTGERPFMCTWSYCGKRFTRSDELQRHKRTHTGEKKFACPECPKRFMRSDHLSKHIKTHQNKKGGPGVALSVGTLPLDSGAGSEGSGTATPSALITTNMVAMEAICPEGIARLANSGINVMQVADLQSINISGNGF
Assay: ATG_Sp1_CIS: Attagene CIS-FACTORIAL HepG2 Assay for human Specificity Protein 1 (Sp1) (AID 2282961)
Settings: HepG2 Sp1 cis-reporter transcription, actives raise or lower the signal
Active and inactive are the calls of the source. Rule for the calls: active = hit-call score of the fitted dose curve at least 0.9, where 1 is the maximum; inactive = score below 0.9.
Result Type: outcome

> print(dat)
                       structure.smiles                            assayed.target    result
1                             CC1CCCCC1  Transcription factor Sp1 (Homo sapiens) (UniProt P08047)  inactive
2  O=C(O)C(F)(F)C(F)(F)C(F)(F)OC(F)(F)F  Transcription factor Sp1 (Homo sapiens) (UniProt P08047)  inactive
3                               CCOCOCC  Transcription factor Sp1 (Homo sapiens) (UniProt P08047)  inactive
4           CC(C)OC(=O)COc1ccc(Cl)cc1Cl  Transcription factor Sp1 (Homo sapiens) (UniProt P08047)  inactive

Please examine the following record next.
Task item: Which outcome value is on record for `c1ccc(C[P+](c2ccccc2)(c2ccccc2)c2ccccc2)cc1` ?
Reply: inactive

----------
Test: ACEA_AR_agonist_AUC_viability: ACEA Biosciences xCELLigence Real-Time Cell Analysis on Androgen Receptor Agonism for Viability (AID 2283775)
Results filed as inconclusive are left out. Active and inactive are the calls of the source. The calls were made as follows: active = hit-call score of the fitted dose curve at least 0.9, where 1 is the maximum; inconclusive = response in the unintended direction; inactive = score below 0.9.
Outcome (select one): true (1) (active), false (0) (inactive)

Worked examples, 2 compounds total:
> print(dat)
                           structure.smiles  class.assignment
1  CC(C)(C)c1cc(Cc2cc(C(C)(C)C)c(O)c(C(C)(C)C)c2)cc(C(C)(C)C)c1O         false (0)
2                             CC(=O)CCC(C)C         false (0)

Task item: Recorded test outcome, item `CCCCCCCCn1sc(Cl)c(Cl)c1=O`
Reply: true (1)

----------
Assay: ATG_GRE_CIS: Attagene CIS-FACTORIAL HepG2 Assay for human Glucocorticoid Response Elements (GRE) (AID 2282947)
Conditions: HepG2 GRE cis-reporter, Attagene multiplex mRNA; actives raise or lower the signal
Active and inactive are the calls of the source. The calls were made as follows: active = hit-call score of the fitted dose curve at least 0.9, where 1 is the maximum; inactive = score below 0.9.
Outcome (select one): 1.0 = active, 0.0 = inactive

> print(dat)
                                   compound  class.assignment
1                      F[Si-2](F)(F)(F)(F)F               0.0
2  O=C(O)C(F)(F)C(F)(F)C(F)(F)OC(F)(C(F)(F)F)C(F)(F)F               0.0

We next turn to a different compound, shown below.
Task item: Recorded test outcome, item `CC(C)Nc1ccc(NC(C)C)c2c1C(=O)c1ccccc1C2=O`
Reply: 0.0
